target.entity: Cysteinyl leukotriene receptor 1 (Homo sapiens); also: in other assays of this panel Not Active means under 50% inhibition at 10 µM
Sequence (Q9Y271 whole entry): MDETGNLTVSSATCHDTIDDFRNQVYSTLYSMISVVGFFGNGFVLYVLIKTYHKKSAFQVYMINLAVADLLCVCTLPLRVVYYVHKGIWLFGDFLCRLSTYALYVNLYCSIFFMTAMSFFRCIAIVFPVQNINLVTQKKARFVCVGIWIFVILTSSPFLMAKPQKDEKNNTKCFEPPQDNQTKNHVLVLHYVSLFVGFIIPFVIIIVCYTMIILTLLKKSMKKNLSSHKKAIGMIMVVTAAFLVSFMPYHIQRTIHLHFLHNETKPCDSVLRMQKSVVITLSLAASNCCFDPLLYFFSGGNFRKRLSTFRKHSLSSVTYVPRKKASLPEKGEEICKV
Type: cell membranes, CHO-K1, Membrane
condition.label: read-out: Ki
pKi: −log10 of the molar value.
experimental.readout: pKi

compound="CC/C(=C(/CC)c1ccc(O)cc1)c1ccc(O)cc1 [DIETHYLSTILBESTROL]" endpoint_value=5.05

----------
target.entity: Alpha-2A adrenergic receptor (Homo sapiens); also: in other assays of this panel Not Active means under 50% inhibition at 10 µM
Sequence (P08913 whole entry): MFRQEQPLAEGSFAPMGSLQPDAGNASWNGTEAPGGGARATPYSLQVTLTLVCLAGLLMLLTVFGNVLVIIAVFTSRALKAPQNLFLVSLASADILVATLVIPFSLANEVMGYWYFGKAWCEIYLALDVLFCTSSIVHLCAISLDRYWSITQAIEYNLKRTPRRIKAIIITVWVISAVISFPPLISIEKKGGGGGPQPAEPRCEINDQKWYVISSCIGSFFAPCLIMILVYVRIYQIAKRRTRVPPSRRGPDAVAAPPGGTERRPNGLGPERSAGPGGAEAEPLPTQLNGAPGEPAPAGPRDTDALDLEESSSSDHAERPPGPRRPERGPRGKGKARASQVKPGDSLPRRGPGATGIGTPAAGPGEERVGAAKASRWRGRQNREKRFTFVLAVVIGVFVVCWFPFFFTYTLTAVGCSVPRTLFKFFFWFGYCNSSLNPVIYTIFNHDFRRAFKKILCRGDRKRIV
Format: cell membranes, Sf9, Membrane
condition.label: sf9; read-out: IC50
pIC50: −log10 of the molar value.
experimental.readout: pIC50

substance="CADMIUM DICHLORIDE" endpoint_value=5.16

----------
target.entity: Substance-K receptor (Homo sapiens, UniProt P21452); also: in other assays of this panel Not Active means under 50% inhibition at 10 µM
Sequence (P21452 whole entry): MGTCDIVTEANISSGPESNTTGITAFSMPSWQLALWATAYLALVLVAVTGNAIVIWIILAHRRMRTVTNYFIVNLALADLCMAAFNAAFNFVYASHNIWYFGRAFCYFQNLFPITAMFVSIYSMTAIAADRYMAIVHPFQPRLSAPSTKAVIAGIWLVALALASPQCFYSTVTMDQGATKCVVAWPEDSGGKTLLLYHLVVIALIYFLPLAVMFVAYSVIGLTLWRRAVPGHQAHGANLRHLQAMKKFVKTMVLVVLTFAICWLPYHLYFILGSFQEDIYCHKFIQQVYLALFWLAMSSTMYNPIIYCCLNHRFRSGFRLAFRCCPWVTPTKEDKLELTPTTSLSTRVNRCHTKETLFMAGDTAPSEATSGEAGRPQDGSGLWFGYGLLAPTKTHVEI
Type: cell membranes, CHO, Membrane
condition.label: read-out: IC50
pIC50: −log10 of the molar value.
experimental.readout: pIC50

molecule="CC(=O)N1CCN(c2ccc(OCC3COC(Cn4ccnc4)(c4ccc(Cl)cc4Cl)O3)cc2)CC1 (stereo unspecified)" experimental_readout=pIC50 endpoint_value=4.76
molecule=CN(C)c1ccc(C(=C2C=CC(=[N+](C)C)C=C2)c2ccc(N(C)C)cc2)cc1.[Cl-] experimental_readout=pIC50 endpoint_value=5.77
molecule=O=C(c1ccc(OCCN2CCCCC2)cc1)c1c(-c2ccc(O)cc2)sc2cc(O)ccc12 experimental_readout=pIC50 endpoint_value=5.40
molecule=CCC1=C[C@@H]2CN(C1)Cc1c([nH]c3ccccc13)[C@@](C(=O)OC)(c1cc3c(cc1OC)N(C)[C@H]1[C@@](O)(C(=O)OC)[C@H](OC(C)=O)[C@]4(CC)C=CCN5CC[C@]31[C@@H]54)C2 experimental_readout=pIC50 endpoint_value=5.79
molecule=CC/C(=C(/CC)c1ccc(O)cc1)c1ccc(O)cc1 experimental_readout=pIC50 endpoint_value=5.02
molecule="CC(C)(C)c1ccc(C(O)CCCN2CCC(C(O)(c3ccccc3)c3ccccc3)CC2)cc1 (stereo unspecified)" experimental_readout=pIC50 endpoint_value=5.57

----------
# IC50 annotations
target.entity: Epidermal growth factor receptor (Homo sapiens, UniProt P00533)
Sequence (P00533 whole entry): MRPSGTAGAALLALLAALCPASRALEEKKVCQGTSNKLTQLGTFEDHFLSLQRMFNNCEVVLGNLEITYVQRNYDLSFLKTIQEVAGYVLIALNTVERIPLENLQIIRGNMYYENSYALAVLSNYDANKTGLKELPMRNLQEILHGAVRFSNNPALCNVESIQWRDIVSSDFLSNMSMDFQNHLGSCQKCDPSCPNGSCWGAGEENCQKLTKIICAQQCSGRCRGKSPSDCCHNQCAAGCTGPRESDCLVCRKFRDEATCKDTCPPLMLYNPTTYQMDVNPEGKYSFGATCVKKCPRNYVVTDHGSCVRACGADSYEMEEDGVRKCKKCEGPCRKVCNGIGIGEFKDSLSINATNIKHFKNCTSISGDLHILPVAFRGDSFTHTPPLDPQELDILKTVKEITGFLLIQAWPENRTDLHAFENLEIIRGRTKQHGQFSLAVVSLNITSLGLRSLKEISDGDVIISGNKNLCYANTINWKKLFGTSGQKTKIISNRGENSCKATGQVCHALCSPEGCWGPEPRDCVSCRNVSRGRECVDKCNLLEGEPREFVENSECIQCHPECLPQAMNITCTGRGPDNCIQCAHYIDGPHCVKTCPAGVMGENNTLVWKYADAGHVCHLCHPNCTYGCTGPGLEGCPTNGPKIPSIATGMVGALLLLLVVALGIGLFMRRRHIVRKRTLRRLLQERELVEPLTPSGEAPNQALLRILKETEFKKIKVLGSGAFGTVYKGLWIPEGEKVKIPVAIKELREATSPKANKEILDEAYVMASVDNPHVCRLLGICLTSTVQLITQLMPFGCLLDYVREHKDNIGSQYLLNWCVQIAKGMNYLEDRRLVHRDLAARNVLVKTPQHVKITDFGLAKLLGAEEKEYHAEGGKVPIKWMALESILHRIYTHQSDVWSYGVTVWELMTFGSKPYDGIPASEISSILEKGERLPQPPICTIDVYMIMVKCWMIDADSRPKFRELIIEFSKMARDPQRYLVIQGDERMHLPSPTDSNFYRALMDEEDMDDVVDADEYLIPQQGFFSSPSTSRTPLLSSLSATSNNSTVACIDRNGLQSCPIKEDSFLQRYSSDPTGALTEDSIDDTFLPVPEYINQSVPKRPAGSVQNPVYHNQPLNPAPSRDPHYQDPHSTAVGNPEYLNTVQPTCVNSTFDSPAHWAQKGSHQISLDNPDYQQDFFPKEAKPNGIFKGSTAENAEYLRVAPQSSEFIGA
experiment.notes: DRUGMATRIX: Protein Tyrosine Kinase, EGF Receptor enzyme inhibition (substrate: Poly(Glu:Tyr))
Assay type: cell-based, Insect cells
condition.label: Not Active = under 50% inhibition at 10 µM; read-out: IC50
experimental.readout: IC50 (nM)

molecule="[Cl-].[Cl-].[Zn+2] [ZINC CHLORIDE]" experimental_readout=IC50 endpoint_value=2190
molecule="CC(C)(C)c1ccc(C(O)CCCN2CCC(C(O)(c3ccccc3)c3ccccc3)CC2)cc1 (stereo not drawn) [TERFENADINE]" experimental_readout=IC50 endpoint_value=3570
molecule="CN(C)c1ccc(C(=C2C=CC(=[N+](C)C)C=C2)c2ccc(N(C)C)cc2)cc1.[Cl-] [GENTIAN VIOLET]" experimental_readout=IC50 endpoint_value=473

----------
experiment.notes: DRUGMATRIX: Calcium Channel Type L, Phenylalkylamine radioligand binding (ligand: [3H] (-)-Desmethoxyverapamil (D-888))
Format: cell membranes, Rattus norvegicus, Wistar, Brain, Membrane
condition.label: Not Active = under 50% inhibition at 10 µM; read-out: Ki
pKi: −log10 of the molar value.
experimental.readout: pKi

compound="CC(C)CC(N(C)C)C1(c2ccc(Cl)cc2)CCC1 (centres undefined) [SIBUTRAMINE]" experimental_readout=pKi endpoint_value=5.58
compound="CC(C)(C)c1ccc(C(O)CCCN2CCC(C(O)(c3ccccc3)c3ccccc3)CC2)cc1 (centres undefined) [TERFENADINE]" experimental_readout=pKi endpoint_value=6.22
compound="O=C(c1ccc(OCCN2CCCCC2)cc1)c1c(-c2ccc(O)cc2)sc2cc(O)ccc12 [RALOXIFENE]" experimental_readout=pKi endpoint_value=6.84
compound="CN(C)c1ccc(C(=C2C=CC(=[N+](C)C)C=C2)c2ccc(N(C)C)cc2)cc1.[Cl-] [GENTIAN VIOLET]" experimental_readout=pKi endpoint_value=5.48

----------
experiment.notes: DRUGMATRIX: Imidazoline I2, Central radioligand binding (ligand: [3H] Idazoxan)
Assay type: cell membranes, Rattus norvegicus, Wistar, Cerebral cortex, Membrane
condition.label: Not Active = under 50% inhibition at 10 µM
experimental.readout: Ki

molecule="CN(C)/N=N/c1[nH]cnc1C(N)=O [DACARBAZINE]" endpoint_value="Not Active"
molecule="C/C=C/C[C@@H](C)[C@@H](O)[C@H]1C(=O)N[C@@H](CC)C(=O)N(C)CC(=O)N(C)[C@@H](CC(C)C)C(=O)N[C@@H](C(C)C)C(=O)N(C)[C@@H](CC(C)C)C(=O)N[C@@H](C)C(=O)N[C@H](C)C(=O)N(C)[C@@H](CC(C)C)C(=O)N(C)[C@@H](CC(C)C)C(=O)N(C)[C@@H](C(C)C)C(=O)N1C [CYCLOSPORINE]" endpoint_value="Not Active"
molecule="CCC1=C[C@@H]2CN(C1)Cc1c([nH]c3ccccc13)[C@@](C(=O)OC)(c1cc3c(cc1OC)N(C)[C@H]1[C@@](O)(C(=O)OC)[C@H](OC(C)=O)[C@]4(CC)C=CCN5CC[C@]31[C@@H]54)C2 [VINORELBINE]" endpoint_value="Not Active"
molecule="Nc1c(CC(=O)O)cccc1C(=O)c1ccc(Br)cc1 [BROMFENAC]" endpoint_value="Not Active"
molecule="C[C@]1(Cn2ccnn2)[C@H](C(=O)O)N2C(=O)C[C@H]2S1(=O)=O [TAZOBACTAM]" endpoint_value="Not Active"
molecule="CC(=O)Nc1ccc(O)cc1 [ACETAMINOPHEN]" endpoint_value="Not Active"
molecule="Cc1onc(-c2ccccc2)c1-c1ccc(S(N)(=O)=O)cc1 [VALDECOXIB]" endpoint_value="Not Active"
molecule="COCCOC(=O)C1=C(C)NC(C)=C(C(=O)OC(C)C)C1c1cccc([N+](=O)[O-])c1 (stereo not given) [NIMODIPINE]" endpoint_value="Not Active"
molecule="CC(=O)Nc1c(I)c(NC(C)=O)c(I)c(C(=O)O)c1I [DIATRIZOIC ACID]" endpoint_value="Not Active"
molecule="CCCN(CCC)C(=O)C(CCC(=O)O)NC(=O)c1ccccc1 (stereo not given) [PROGLUMIDE]" endpoint_value="Not Active"
molecule="CC1(C)O[C@@H]2C[C@H]3[C@@H]4C[C@H](F)C5=CC(=O)C=C[C@]5(C)[C@H]4[C@@H](O)C[C@]3(C)[C@]2(C(=O)CO)O1 [FLUNISOLIDE]" endpoint_value="Not Active"
molecule="CC(C)(C(=O)c1cccnc1)c1cccnc1 [METYRAPONE]" endpoint_value="Not Active"
molecule="COc1ccc2[nH]c([S+]([O-])Cc3ncc(C)c(OC)c3C)nc2c1 (stereo not given) [OMEPRAZOLE]" endpoint_value="Not Active"
molecule="CCCCN1CCCCC1C(=O)Nc1c(C)cccc1C.Cl (stereo not given) [BUPIVACAINE HYDROCHLORIDE]" endpoint_value="Not Active"
molecule="O=NN(CCCl)C(=O)NCCCl [CARMUSTINE]" endpoint_value="Not Active"

----------
target.entity: UniProt P17948
Sequence (P17948 whole entry): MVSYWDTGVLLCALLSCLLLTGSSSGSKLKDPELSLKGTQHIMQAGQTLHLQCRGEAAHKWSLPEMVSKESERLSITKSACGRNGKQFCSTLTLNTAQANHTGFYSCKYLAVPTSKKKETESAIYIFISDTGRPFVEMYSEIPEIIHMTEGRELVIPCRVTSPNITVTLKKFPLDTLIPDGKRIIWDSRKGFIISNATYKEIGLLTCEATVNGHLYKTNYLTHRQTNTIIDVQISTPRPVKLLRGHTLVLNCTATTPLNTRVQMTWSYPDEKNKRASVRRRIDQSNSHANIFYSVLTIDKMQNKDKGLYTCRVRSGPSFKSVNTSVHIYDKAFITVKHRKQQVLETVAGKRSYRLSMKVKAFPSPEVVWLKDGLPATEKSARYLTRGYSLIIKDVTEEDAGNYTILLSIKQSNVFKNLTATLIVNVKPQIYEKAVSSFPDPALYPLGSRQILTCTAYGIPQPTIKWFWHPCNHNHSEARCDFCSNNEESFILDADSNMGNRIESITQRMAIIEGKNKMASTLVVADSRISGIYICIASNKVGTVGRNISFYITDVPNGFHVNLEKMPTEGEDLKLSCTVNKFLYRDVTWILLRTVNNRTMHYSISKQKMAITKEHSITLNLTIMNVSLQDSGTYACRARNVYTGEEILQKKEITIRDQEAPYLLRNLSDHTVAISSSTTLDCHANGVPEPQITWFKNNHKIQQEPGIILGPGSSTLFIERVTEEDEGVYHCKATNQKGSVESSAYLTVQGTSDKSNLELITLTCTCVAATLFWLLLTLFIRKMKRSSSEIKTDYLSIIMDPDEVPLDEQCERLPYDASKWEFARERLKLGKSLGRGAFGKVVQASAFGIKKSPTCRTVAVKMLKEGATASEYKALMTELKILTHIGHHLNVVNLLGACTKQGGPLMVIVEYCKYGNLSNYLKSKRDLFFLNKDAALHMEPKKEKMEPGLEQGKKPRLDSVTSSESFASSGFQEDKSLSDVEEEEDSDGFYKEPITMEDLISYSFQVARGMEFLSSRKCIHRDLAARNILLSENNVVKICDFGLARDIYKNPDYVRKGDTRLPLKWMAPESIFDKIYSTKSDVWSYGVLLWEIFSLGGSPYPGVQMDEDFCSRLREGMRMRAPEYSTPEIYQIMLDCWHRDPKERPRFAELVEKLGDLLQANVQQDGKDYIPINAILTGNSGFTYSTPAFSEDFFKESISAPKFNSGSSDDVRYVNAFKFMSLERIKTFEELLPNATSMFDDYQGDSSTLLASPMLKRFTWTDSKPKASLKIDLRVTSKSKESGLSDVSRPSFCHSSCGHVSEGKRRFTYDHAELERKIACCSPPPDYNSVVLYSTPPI
Assay type: cell-based
condition.label: huvec
experimental.readout: IC50

molecule=C#C[C@]1(O)CC[C@H]2[C@@H]3CCc4cc(OC)ccc4[C@H]3CC[C@@]21C experimental_readout=IC50 endpoint_value="Not Active"
molecule=C[C@]1(Cn2ccnn2)[C@H](C(=O)O)N2C(=O)C[C@H]2S1(=O)=O experimental_readout=IC50 endpoint_value="Not Active"
molecule=CN(C)/N=N/c1[nH]cnc1C(N)=O experimental_readout=IC50 endpoint_value="Not Active"
molecule=[H]/N=C(/N)N[C@H]1[C@H](O)[C@@H](O)[C@H](O[C@@H]2O[C@@H](C)[C@](O)(C=O)[C@H]2O[C@@H]2O[C@@H](CO)[C@H](O)[C@@H](O)[C@@H]2NC)[C@@H](N/C(N)=N\[H])[C@@H]1O experimental_readout=IC50 endpoint_value="Not Active"
molecule="COc1ccc2[nH]c([S+]([O-])Cc3ncc(C)c(OC)c3C)nc2c1 (stereo not drawn)" experimental_readout=IC50 endpoint_value="Not Active"
molecule=Cc1onc(-c2ccccc2)c1-c1ccc(S(N)(=O)=O)cc1 experimental_readout=IC50 endpoint_value="Not Active"
molecule=CC(C)C[C@H](NC(=O)[C@@H](O)[C@H](N)Cc1ccccc1)C(=O)O experimental_readout=IC50 endpoint_value="Not Active"
molecule="CC(=O)CC(c1ccccc1)c1c(O)c2ccccc2oc1=O (stereo not drawn)" experimental_readout=IC50 endpoint_value="Not Active"
